- System: HT29 colon
- ASSAY OVERVIEW: NCI-60 one-dose screen, 48 h (100 = growth as untreated, 0 = no growth, -100 = all killed)
- CONDITION NOTES: 10 µM unless noted
- Description: Growth inhibition of the HT29 human tumor cell line is measured as a screen for anti-cancer activity. Cells are grown in 96 well plates and exposed to the test compound for 48 hours. Compounds are tested at a single concentration, which is 10^-5 M for most compounds. The reported endpoint is percent growth (GI% or GIPRCNT), where numbers from 0 - 100% represent growth inhibition, and numbers from -100% - 0 represent cell death. For example, a value of 40 represents 60% growth inhibition. […]
This is part of a sample that, as a whole, favours compounds with a hit. Of some 83,000 tested, about 20% had one in any assay.
Use 30% as the dividing line for growth, with the line itself on the 1 (yes) side and lower values as 0 (no).

> print(dat)
                                   compound    group
1  COc1ccc2oc3c(C)c4c(c(C)c3c2c1)C(=O)N(Cc1ccccc1)C4=O  1 (yes)
2  COc1cccc(-c2nn(-c3ccccc3)cc2-c2ccnc(NCCNC(=O)Nc3cccc(C(F)(F)F)c3)c2)c1   0 (no)
3  Cc1ccc2[nH]c(=O)c3c(c2c1)OC(N)=C(C#N)C31c2cc(Br)ccc2-c2ccc(Br)cc21  1 (yes)

Q: Identify whether the reported growth of the following compound is 30% or greater: OC(c1cccc(-n2ccc(C(F)(F)F)n2)c1)c1cnccc1NC1CCCCCC1 (stereo not drawn)
Ans: 0 (no)

Q: And for C=C1C(=O)O[C@H]2[C@H]1CC/C(COC(=O)C(=O)c1c[nH]c3ccc(OC)cc13)=C\CC[C@@]1(C)O[C@@H]21 ?
Ans: 0 (no)

Q: And for Cc1cc(NCc2cc(Nc3ccnc4cc(Cl)ccc34)ccc2F)nc(N2CCSCC2)n1 ?
Ans: 0 (no)

Q: And for CC1(C)CC[C@]2(C(=O)N3CCOCC3)CC[C@]3(C)C(=CC[C@@H]4[C@@]5(C)CC[C@H](OC(=O)c6cccnc6)C(C)(C)[C@@H]5CC[C@]43C)[C@@H]2C1 ?
Ans: 1 (yes)

Q: And for O=C(Nc1ccc(Nc2ccncc2)cc1)c1ccc(C(=O)Nc2ccc(Nc3ccncc3)cc2)cc1 ?
Ans: 1 (yes)

====

Could you please report measured growth for the items listed next?
- System: T-47D breast
- ASSAY OVERVIEW: NCI-60 one-dose screen, 48 h (100 = growth as untreated, 0 = no growth, -100 = all killed)
- CONDITION NOTES: 10 µM unless noted
The panel holds about 83,000 compounds, 20% with a hit somewhere; the sample as a whole holds those more often. Calls of active or inactive are those of the source. The calls were made as follows: active = growth percent below 10; inactive = the rest.

Examples from the recorded data:
> print(dat)
                                   compound  target.system  assay.metric    recorded.value
1   CCN(CC)CCn1nc2c3c(cccc3c1=O)-c1ccccc1-2   T-47D breast        growth    9.48% (active)
2  O=C(Nc1ccccc1-c1nc2ccccc2c(=O)[nH]1)c1cc2ccccc2[nH]1   T-47D breast        growth  70.1% (inactive)
3  COc1ccc(/C=N/C2=C(C#N)C(c3ccc(OC)cc3)c3ccc4ccccc4c3O2)cc1 (stereo unspecified)   T-47D breast        growth  73.6% (inactive)
4                 CCN(CC)Cc1cccc(C(=O)OC)c1   T-47D breast        growth  88.3% (inactive)
5            N=C1CCC(=N)c2c1c(O)c1ccccc1c2O   T-47D breast        growth  89.5% (inactive)

# return growth for each item in the list
1. O=C(Nc1ccc(-n2cc(-c3ccncc3)c(-c3ccc(Cl)c(O)c3)n2)cc1)N1CCOCC1
2. c1ccc(-c2nc([P+](c3ccccc3)(c3ccccc3)c3ccccc3)c(N3CCOCC3)o2)cc1
3. CC(=O)c1ccc(NCC(=O)Nc2ccccn2)cc1
4. CC/C=C/C/C=C/C/C=C/C/C=C/C/C=C/C/C=C/CCC(=O)Nc1ccn([C@@H]2O[C@H](CO)[C@@H](O)C2(F)F)c(=O)n1

Ans:
["83.9% (inactive)", "-3.03% (active)", "94.6% (inactive)", "28.9% (inactive)"]

# return growth for each item in the list
1. O=c1ccn2nc3ccccc3c2[nH]1
2. Cc1ccc(-c2cc3c(cc2O)C2CCCCC2(N2CCOCC2)O3)cc1 (stereo unspecified)
3. O=C1Nc2ccc(F)cc2C12Nc1cc(Cl)ccc1S2 (stereo unspecified)
4. Cc1cccc(-c2nc(N(C)c3ccc4ncsc4c3)c3ccccc3n2)n1
5. COC(=O)[C@]12CC[C@@H](C)[C@H](C)[C@@H]1C1=CC[C@@H]3[C@@]4(C)C(C=O)=C[C@@](C)(COC(=O)c5ccco5)C4=CC[C@@]3(C)[C@]1(C)CC2
6. Cc1cc(NCc2cc(Nc3ccnc4cc(Cl)ccc34)ccc2F)nc(N2CCOCC2)n1
7. Cc1ccc(C(=O)COc2cccc(/C=C3\Oc4ccccc4C3=O)c2)cc1
8. Cc1nc2ccccc2n1CC1NC(=O)NC1=O (stereo unspecified)

Ans:
95% (inactive)
85% (inactive)
40% (inactive)
60.6% (inactive)
-8.1% (active)
-54.8% (active)
50.3% (inactive)
103% (inactive)

# return growth for each item in the list
1. Cn1cc(-c2csc(-c3cccc(F)c3)n2)c2cccnc21
2. Cc1c(Cl)cc(-n2c(=O)c3ccccc3c3ccccc3c2=O)cc1Cl
3. CCCCn1c(=O)c2c(nc(NCCc3ccc(O)c(O)c3)n2CCC)n(CCCC)c1=O

Ans:
-47.9% [100 µM] (active)
93.9% (inactive)
49.3% (inactive)

Q: Could you tell me which growth is on file for CCN(CC)CCN1C(=O)c2c(c(C)c3c(oc4cc(O)ccc43)c2C)C1=O ?
Ans: 89.5% (inactive)
